Hi there, I'd appreciate the recorded pIC50 for every entry that follows.
test system: 833K tumor cells; assay: in vitro cytotoxicity against growth of 833K tumor cells; type: cell-based; details: Homo sapiens, read-out: IC50 for cell growth inhibition, 833K
Convention used: pIC50 is expressed as -log10 of the molar concentration.

For this molecule ( CCOC(=O)Nc1cc(CO)cc(Nc2c3cccc(C)c3nc3c(C(=O)NC)cccc23)c1 [compound 5] ), measured pIC50 is 7.47

For this molecule ( CNC(=O)c1cccc2c(Nc3cc(N)cc(CO)c3)c3cccc(C)c3nc12 [compound 4] ), measured pIC50 is 6.61

For this molecule ( CC(C)COC(=O)Nc1cc(CO)cc(Nc2c3ccccc3nc3ccccc23)c1 [compound 3] ), measured pIC50 is 7.68

For this molecule ( CCOC(=O)Nc1cc(CO)cc(Nc2c3ccccc3nc3ccccc23)c1 [compound 2] ), measured pIC50 is 7.70
